tested on: HT-29; test: NCI tumour cell line growth inhibition, 48 h
Calls of active or inactive are those of the source. No stated cut-off is given here; in the data, active = GI50 up to about 1.1 µM and inactive = higher.
EXPERIMENTAL_READOUT: GI50

MOLECULE	ASSAYED_TARGET	GI50
CC(=O)O[C@H]1CC[C@H]2[C@@H]3CCC4=C/C(=N/OCCN(C)C)CC[C@]4(C)[C@H]3CC[C@]12C	HT-29	2.06 µM (inactive)
COc1ccc(/C=C2\N/C(=N/N)N=C2Cl)cc1	HT-29	> 100 µM (inactive)
CCC1(O)C(=O)OCc2c1cc1n(c2=O)Cc2cc3ccc(CO)cc3nc2-1 (stereo not given)	HT-29	9.35 µM (inactive)
Cc1nc2[nH]ncn2c(=O)c1CCCl	HT-29	> 10 µM (inactive)

Now look at this entry.
GI50 reading for `Cn1c(=S)c2nc(SCCCc3ccccc3)[nH]c2n(C)c1=O` : 22.8 µM (inactive)

---

Recorded GI50 for the following molecules
system: EKVX; assay: NCI tumour cell line growth inhibition, 48 h
Activity calls are given as the source filed them. Cut-off read from the data, not from the text of the source: active = GI50 up to about 1.1 µM and inactive = higher.

MOLECULE	GI50
Cc1cccc2nc3n(c12)C(=O)c1ccccc1-3	91.4 µM (inactive)
CC(C)c1ccc(Cc2ccc(C(C)C)c(NC(=O)C(=O)Cc3cnc4ccccc4n3)c2C(C)C)c(C(C)C)c1NC(=O)C(=O)Cc1cnc2ccccc2n1	> 100 µM (inactive)
Cc1c(-c2ccccc2)[nH]c2cc(Cl)ccc2c1=O	> 100 µM (inactive)
O=C1OC[C@@H]2Cc3c([nH]c4ccccc34)[C@@H](c3cc(O)c(O)c(O)c3)N12	44.5 µM (inactive)
CC(C)C1=CCC2C(=C1)CCC1C(C)(C(=O)O)CCCC21C (stereo not given)	> 100 µM (inactive)

GI50 reading for `C/C(=N\NC(=S)N(C)CCN(C)C(=S)N/N=C(\C)c1ccccn1)c1ccccn1` : 1.73 µM (inactive)

GI50 reading for Cc1ccc(C2OC(COCc3ccc(Cl)cc3)C(OCc3ccc(Cl)cc3)C2O)cc1 (stereo not given) : 13 µM (inactive)

---

tested on: HCC 2998; assay: NCI tumour cell line growth inhibition, 48 h
Activity calls are given as the source filed them. No stated cut-off is given here; in the data, active = GI50 up to about 1.1 µM and inactive = higher.
Response enum: T = active, F = inactive

Would you please look over these solved cases?
COMPOUND	ASSIGNED_CATEGORY
CCOC(=O)c1cc2c3ccn(Cc4ccccc4)c3c3c(C)noc3c2[nH]1	F
CCOC(=O)C1=NNC(C(=O)c2ccccc2)C1c1ccccc1 (stereo unspecified)	F

[Q] Recorded call for `Cc1cc2nc(C=C(C(F)(F)F)C(F)(F)F)sc2cc1C` ?
[A] F

[Q] Recorded call for O=C1C=C(c2ccccc2)NC1(c1ccccc1)c1cc(-c2ccccc2)[nH]c1-c1ccccc1 (stereo unspecified) ?
[A] F

[Q] Recorded call for `Cc1nc2ccccc2n1Cc1nnc2n1N=C(c1ccccc1)CS2` ?
[A] F

[Q] Recorded call for `Cc1ccc2c(O)cc(-c3ccc(Cl)cc3)nc2n1` ?
[A] F

[Q] Recorded call for `O=C(Nc1ccc(Cl)cc1)c1cc(S(=O)(=O)Nc2n[nH]c(=O)[nH]2)c(SSc2cc(Cl)c(C(=O)Nc3ccc(Cl)cc3)cc2S(=O)(=O)Nc2n[nH]c(=O)[nH]2)cc1Cl` ?
[A] F

---

tested on: A498; assay: NCI tumour cell line growth inhibition, 48 h
Active and inactive are the calls of the source. Rule as the data show it: active = GI50 up to about 1.1 µM and inactive = higher.
EXPERIMENTAL_READOUT: GI50

COMPOUND	RECORDED_VALUE
CC(C)(O)[C@H](CCO)O[Si](c1ccccc1)(c1ccccc1)C(C)(C)C	16.5 µM (inactive)

GI50 reading for `O=[N+]([O-])c1cc(F)ccc1S(=O)(=O)c1ccccc1` : > 10 µM (inactive)

GI50 reading for `CC(=O)N(C(C)=O)c1c(N)n(C)c(=O)[nH]c1=O` : > 100 µM (inactive)

GI50 reading for COC(=O)C(=O)C(C(=O)C(=O)Nc1cccc(OC)c1)c1nc2ccc(Cl)cc2nc1O (stereo not given) : > 100 µM (inactive)

GI50 reading for `COc1cc2c(NCCCCCCO[N+](=O)[O-])ncnc2c(OC)c1OC` : 18.1 µM (inactive)

GI50 reading for `Cn1c(=O)n(C2(C)C[Se]C2)c2ccccc21` : > 100 µM (inactive)

---

system: OVCAR-8; assay: NCI tumour cell line growth inhibition, 48 h
Activity calls are given as the source filed them. Rule as the data show it: active = GI50 up to about 1.1 µM and inactive = higher.
Recorded GI50 for the following compounds

COMPOUND	RECORDED_VALUE
O=C1OC[C@@H]2Cc3c([nH]c4ccccc34)[C@@H](c3cc(O)c(O)c(O)c3)N12	16.4 µM (inactive)
COC(O)C(=O)c1c2c(cc3c1CCC3)CCCC2 (stereo unspecified)	7.87 µM (inactive)

GI50 reading for CC(=O)OC12CC[N+]3(C)CCCCC3C1=Nc1ccccc12 (stereo unspecified) : > 100 µM (inactive)

GI50 reading for C[C@@H]1C2=CC[C@@]3(C)C(CCC3[C@H](C)[C@H]3C[C@@]4(C)O[C@@](c5cccnc5)(O3)OC4(C)C)[C@@H]2C2OC2[C@@]12CCC(=O)O2 (stereo partly specified) : 32.4 µM (inactive)

GI50 reading for `COc1c(C(=O)/C(=N/Nc2cccc(Cl)c2)C(C)=O)c(O)c(OC)c2occc12` : 60.4 µM (inactive)

GI50 reading for `CC(=O)CC(=O)NC=O` : > 100 µM (inactive)

GI50 reading for `CCOC(=O)/C=C/c1nc(C#N)c(N)o1` : > 100 µM (inactive)

GI50 reading for CCCNC(=O)C1C(=O)C(=O)N(CCC)C1=O (stereo unspecified) : > 100 µM (inactive)

GI50 reading for Cc1nn(C(=O)c2ccncc2)c2c1C(c1ccccc1O)SC(=N)N2 (stereo unspecified) : > 10 µM (inactive)

GI50 reading for `NNc1nnc(-c2ccccc2)nc1Cc1ccccc1` : 4.52 µM (inactive)

GI50 reading for `Cn1c2ccccc2n2c(=O)c3c(c(C#N)c12)CCCC3` : > 100 µM (inactive)

---

tested on: OVCAR-5; assay: NCI tumour cell line growth inhibition, 48 h
Calls of active or inactive are those of the source. No stated cut-off is given here; in the data, active = GI50 up to about 1.1 µM and inactive = higher.
Response enum: t = active, f = inactive

Would you please look over these solved cases?
COMPOUND	ASSAYED_TARGET	ASSIGNED_CATEGORY
CCOC(=O)[C@]12C3C=CC(C3)C1C(=O)C1OC12 (some centres undefined)	OVCAR-5	f
Cn1c2ccccc2n2c(=O)c3c(c(C#N)c12)CCCC3	OVCAR-5	f
Cc1ccc2c(O)cc(-c3ccc(Cl)cc3)nc2n1	OVCAR-5	f
O=C1C(Cl)=C(Cl)C(=O)N1c1cccc(C(F)(F)F)c1	OVCAR-5	f
COC1=C(C(=O)OC(C)(C)C)[C@]2(C)C(C(=O)OC(C)(C)C)C(OC)=C(C(=O)OC(C)(C)C)[C@]2(C)C1C(=O)OC(C)(C)C (some centres undefined)	OVCAR-5	f
Cc1cc(NN)nc2[nH]nc(N)c12	OVCAR-5	f
COc1ccc2[nH]c3c(C)c4cc[n+](COC(=O)c5ccccc5)cc4c(C)c3c2c1	OVCAR-5	t
CSc1c(C(=O)Nc2ccccc2)c(N)nn1-c1ccccc1	OVCAR-5	f

[Q] Recorded call for `COc1ccc(Nc2nc(C#N)c(N)s2)cc1` ?
[A] f

[Q] Recorded call for `CC(C)/C(Cl)=N\OC(=O)Nc1cccc(Cl)c1` ?
[A] f

---

tested on: M14; test: NCI tumour cell line growth inhibition, 48 h
Calls of active or inactive are those of the source. Rule as the data show it: active = GI50 up to about 1.1 µM and inactive = higher.
EXPERIMENTAL_READOUT: GI50

COMPOUND	ASSAYED_TARGET	GI50
COc1ccc(Nc2nc(N)c(C(=O)c3cccs3)s2)cc1	M14	13.4 µM (inactive)
CCc1cccc(C)c1NC(=O)CC1C(=O)Nc2ccccc2S1(=O)=O (centres undefined)	M14	18.9 µM (inactive)
Nc1ccc(Nc2nc(F)nc(-c3c4ccccc4c4n3CCS4)n2)cc1	M14	17 µM (inactive)
C/C(=C\c1ccccc1)C(=O)c1c(C)cc(C)cc1C	M14	> 100 µM (inactive)
CC(C)c1ccc2nc3ccc(C(=O)NCCN4CCN(c5ccccc5)CC4)cn3c(=O)c2c1	M14	2.87 µM (inactive)

Tested on M14: O=C1C=C(c2ccccc2)NC1(c1ccccc1)c1cc(-c2ccccc2)[nH]c1-c1ccccc1 (centres undefined) . Observed GI50: > 100 µM (inactive)

Tested on M14: COc1cc2c(cc1O)C1Cc3ccc(OC)c(O)c3C(C2)N1C (centres undefined) . Observed GI50: > 100 µM (inactive)

Tested on M14: OC1CCC[C@@H]1Sc1ccccc1 (some centres undefined) . Observed GI50: > 100 µM (inactive)

Tested on M14: `O=C(CC/C(CC(=O)c1ccc(Cl)cc1)=N\O)Nc1cccc(Cl)c1` . Observed GI50: > 100 µM (inactive)

Tested on M14: COC(=O)C1C(C(=O)OC)N(Cc2ccccc2)C(=O)N1Cc1ccccc1 (centres undefined) . Observed GI50: > 100 µM (inactive)

Tested on M14: `Cc1cc(NN)nc2[nH]nc(N)c12` . Observed GI50: > 100 µM (inactive)
